Listing of recorded MIC by entry.
System: Streptococcus pneumoniae
methodDescription: Antibacterial activity against Streptococcus pneumoniae MTCC 1936 after 24 hr by broth microdilution method
Format: functional
measurementConditions: MTCC 1936, 24 h
Write it as a number; the unit µg/mL goes unstated.

May I ask what MIC has been recorded for CC1(C)CC(=O)C2=C(C1)N(c1ccc(F)cc1)C(=O)CC2c1cn(-c2ccccc2)nc1-c1ccc([N+](=O)[O-])cc1 (stereo not drawn) ?
250

Can you share its MIC? I mean this molecule: CC1(C)CC(=O)C2=C(C1)N(c1ccc(F)cc1)C(=O)CC2c1cn(-c2ccccc2)nc1-c1ccc(Br)cc1 (stereo not drawn)
250

====

Test system: Streptococcus pneumoniae
methodDescription: Antibacterial activity against Streptococcus pneumoniae MTCC 1936 after 24 hr by broth microdilution method
Type: functional
measurementConditions: MTCC 1936, 24 h
Listed here are compounds together with their documented MIC.
Entry rule: numbers only, all in µg/mL.

Here are 7 compounds together with their reported answers.
compound: O=C1CCCC2=C1C(c1cn(-c3ccccc3)nc1-c1ccc(Cl)cc1)CC(=O)N2c1ccc(F)cc1 (stereo not drawn)
studyTarget: Streptococcus pneumoniae
measurementLabel: MIC
unitName: µg/mL
readoutNumber: 250

compound: Cc1ccc(-c2nn(-c3ccccc3)cc2C2CC(=O)N(c3ccc(F)cc3)C3=C2C(=O)CC(C)(C)C3)cc1 (stereo not drawn)
studyTarget: Streptococcus pneumoniae
measurementLabel: MIC
unitName: µg/mL
readoutNumber: 100

compound: O=C1CCCC2=C1C(c1cn(-c3ccccc3)nc1-c1cccs1)CC(=O)N2c1ccc(F)cc1 (stereo not drawn)
studyTarget: Streptococcus pneumoniae
measurementLabel: MIC
unitName: µg/mL
readoutNumber: 200

compound: Cc1ccc(-c2nn(-c3ccccc3)cc2C2CC(=O)N(c3ccc(F)cc3)C3=C2C(=O)CCC3)cc1 (stereo not drawn)
studyTarget: Streptococcus pneumoniae
measurementLabel: MIC
unitName: µg/mL
readoutNumber: 100

compound: O=C(O)c1cn(C2CC2)c2cc(N3CCNCC3)c(F)cc2c1=O
studyTarget: Streptococcus pneumoniae
measurementLabel: MIC
unitName: µg/mL
readoutNumber: 50

compound: COc1ccc(-c2nn(-c3ccccc3)cc2C2CC(=O)N(c3ccc(F)cc3)C3=C2C(=O)CC(C)(C)C3)cc1 (stereo not drawn)
studyTarget: Streptococcus pneumoniae
measurementLabel: MIC
unitName: µg/mL
readoutNumber: 100

compound: CC1(C)CC(=O)C2=C(C1)N(c1ccc(F)cc1)C(=O)CC2c1cn(-c2ccccc2)nc1-c1ccc(Cl)cc1 (stereo not drawn)
studyTarget: Streptococcus pneumoniae
measurementLabel: MIC
unitName: µg/mL
readoutNumber: 250

Read the next record carefully.
Kindly state the measured MIC obtained for O=C1CCCC2=C1C(c1cn(-c3ccccc3)nc1-c1ccc(Br)cc1)CC(=O)N2c1ccc(F)cc1 (stereo not drawn) with Streptococcus pneumoniae.
250

====

Measured MIC values are reported for all entries that follow.
System: Bacillus subtilis
methodDescription: Antibacterial activity against Bacillus subtilis MTCC 441 after 24 hr by broth microdilution method
Assay type: functional
measurementConditions: MTCC 441, 24 h
Please give a number only; it is taken to be in µg/mL.

The following molecules have reported results that may help.
molecule: O=C1CCCC2=C1C(c1cn(-c3ccccc3)nc1-c1ccc(Cl)cc1)CC(=O)N2c1ccc(F)cc1 (stereo not drawn)
MIC / µg/mL: 0.25
//
molecule: O=C1CCCC2=C1C(c1cn(-c3ccccc3)nc1-c1ccc([N+](=O)[O-])cc1)CC(=O)N2c1ccc(F)cc1 (stereo not drawn)
MIC / µg/mL: 0.2
//
molecule: CC1(C)CC(=O)C2=C(C1)N(c1ccc(F)cc1)C(=O)CC2c1cn(-c2ccccc2)nc1-c1ccc(Cl)cc1 (stereo not drawn)
MIC / µg/mL: 0.15

From here, focus on the item given below.
Endpoint output: MIC of O=C(O)c1cn(C2CC2)c2cc(N3CCNCC3)c(F)cc2c1=O [CIPROFLOXACIN] . Value?
0.05
